- Test Summary: folding stability dG unfold (combined trypsin and chymotrypsin); higher = more stable

Polymer Sequence	Unit Of Measure	Rel	folding stability dG unfold
SAGGSAGGSMSPEEARALAEALAEALGEPDVEVLEVVQTENPAADSTTVTVTIRLPDGSVRVLSAGGSAGGS [r12_508_JUSTAS]	kcal/mol	=	1.63
SAGGTLTLLVEVDGLLVRVTAEVRLVYDPETDELTLEVRVRVEVRPLPAPPPPLVVVRDADGRLRLLSAGGS [r8_46_TrROS_Hall]	kcal/mol	=	2.22
SAGGRGQELTIPNGAPIEDIEELAKKDPDYQVKITEIKMQKPKKDPNGKKRPVPMWMKITLYPAGEKSAGGS [r8_172_TrROS]	kcal/mol	<	-1
SAGGSAGGSMTVTVRRVYFPPNLAEGMTVEELRKKLGVPDLPVLVVDVEVTLTPEELEALLKESAGGSAGGS [r12_178_TrMRF]	kcal/mol	=	1.97
SAGGSAMPGMTLQELLDAIRALLPPGARARIYVRNPDGEVIELTDLDDITVEDLENAEIRIEIEPVSAGGSA [r15_144_TrROS_Hall]	kcal/mol	=	3.88
SAGGSAGGSAGGLKELADKLNPGFEIRVENIEPTPGPVRINVRAPNEGVPRSIPIDPDDISAGGSAGGSAGG [r7_303_TrROS]	kcal/mol	=	0.479
SAGGSAGGWIIRIHFPNGHEHTFKIKSPEEAKDRIMDHHGMPPDKIPPETIKDVEIIPPDAMKESAGGSAGG [r6_588_TrROS]	kcal/mol	=	0.434
SAGGSAPKRRIEIYPNPNGMYRIKVSNPDGKKREHTIDGPGMPLEQLANKLNIPPGFKIDEIEPYPSAGGSA [r15_167_TrROS]	kcal/mol	<	-1
SAGGSAGGSYPIFDKEKGKLDPGPPEKELDVVIKVKKDGKWYPIDLKLSKSDLIRFVKELEKDSAGGSAGGS [r20_148_TrMRF]	kcal/mol	<	-1
SMRVTIMIPVPPGLKNLKLEFKLPYPDGREVDVDIQVDPNYITITVEMNNPGQMDWVQERFQEEIEKLLGSA [r9_790_TrROS]	kcal/mol	=	3.64
SAGGPNFTIKIEIEEIPNGVRVHKMTMELPDGHAWLMVMLYSPDPGKMFMIMVPVDPNGGIEDINIMPSAGG [r13_323_TrROS]	kcal/mol	=	3.92
SAVINIEAWFPPGKSVEEAVDEAKNIIHQFGFEIDDVDVERDPNGWVRVDFTIKIKPPMPPEQRKKLQDSAG [r14_110_TrROS]	kcal/mol	=	2.45
SAGPFYVRMKIEVPRKTYDPEDGEPKQEKREIDIWFPMKSEEQARDHADKLAEELPPENVKITDIEPFSAGG [r19_209_TrROS]	kcal/mol	<	-1
SMTITIERPVPPELTDRPLSLELPLPNGSTVSVKVETSPTTATVTITTNDPSLEAEVKARVEELLARLLASA [r9_790_JUSTAS]	kcal/mol	=	2.27

These data points were gathered from the supplement of paper PMC12764529.
